- Target Under Test: T1, HCV Core1-169 (hepatitis C virus (HCV-1), UniProt P26664 1-169)
- T1 sequence: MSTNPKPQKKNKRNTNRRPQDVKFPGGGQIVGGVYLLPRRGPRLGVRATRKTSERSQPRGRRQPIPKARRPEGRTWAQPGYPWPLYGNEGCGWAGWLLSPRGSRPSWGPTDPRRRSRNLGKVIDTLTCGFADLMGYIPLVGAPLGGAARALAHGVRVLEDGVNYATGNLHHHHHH
- Assay Remarks: SPR sandwich, capture mAb C11-7
Metric: expected percent binding

For the binder HCV 208A-1064 (antibody, V domains shown) VH: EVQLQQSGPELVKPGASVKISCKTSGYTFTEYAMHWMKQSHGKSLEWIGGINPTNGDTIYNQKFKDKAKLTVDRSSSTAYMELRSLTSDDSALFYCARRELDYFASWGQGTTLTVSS VL: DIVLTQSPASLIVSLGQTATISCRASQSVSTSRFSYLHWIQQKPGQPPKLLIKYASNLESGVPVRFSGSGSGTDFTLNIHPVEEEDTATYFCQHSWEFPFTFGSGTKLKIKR , what expected percent binding is on record? 19.6%

Record: HCV 208B-408 (antibody, V domains shown) VH: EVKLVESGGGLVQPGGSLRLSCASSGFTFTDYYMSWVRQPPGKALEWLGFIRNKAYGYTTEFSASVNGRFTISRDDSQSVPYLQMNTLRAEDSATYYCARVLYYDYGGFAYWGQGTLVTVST VL: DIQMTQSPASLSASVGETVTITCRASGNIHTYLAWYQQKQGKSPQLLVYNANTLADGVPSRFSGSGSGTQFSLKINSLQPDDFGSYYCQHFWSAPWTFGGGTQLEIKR ≤ 1%

Source listed as patent US20170052184A1.
